Each entry below carries its reported BMPRIb binding (relative to wild type = 1.0).
Molecular target: T1, BMPRIb receptor-Fc fusion (UniProt O00238 14-126)
T1 construct: BMP receptor-Fc fusion used at 5 ug/mL; also called ALK-6
T1 sequence (looked up): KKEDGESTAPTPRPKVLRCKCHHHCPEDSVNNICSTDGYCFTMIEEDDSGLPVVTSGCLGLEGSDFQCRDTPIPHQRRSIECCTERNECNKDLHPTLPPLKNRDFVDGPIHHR
Assay: ELISA-like plate assay, captured BMP-7 from conditioned media, receptor-Fc detection

Below are worked cases with known answers.
BINDER	REPORTED MEASUREMENT
BMP-7 variant I86Q (ligand, In conditioned media; numbering on mature BMP-7) STGGKQRSQNRSKTPKNQEALRMASVAENSSSDQRQACKKHELYVSFRDLGWQDWIIAPEGYAAYYCEGECAFPLNSYMNATNHAQVQTLVHFINPETVPKPCCAPTQLNAISVLYFDDSSNVILKKYRNMVVRACGCH	0.82 relative to wild type
BMP-7 variant N76S (ligand, In conditioned media; numbering on mature BMP-7) STGGKQRSQNRSKTPKNQEALRMASVAENSSSDQRQACKKHELYVSFRDLGWQDWIIAPEGYAAYYCEGECAFPLSSYMNATNHAIVQTLVHFINPETVPKPCCAPTQLNAISVLYFDDSSNVILKKYRNMVVRACGCH	0.85 relative to wild type
BMP-7 variant Q53S (ligand, In conditioned media; numbering on mature BMP-7) STGGKQRSQNRSKTPKNQEALRMASVAENSSSDQRQACKKHELYVSFRDLGWSDWIIAPEGYAAYYCEGECAFPLNSYMNATNHAIVQTLVHFINPETVPKPCCAPTQLNAISVLYFDDSSNVILKKYRNMVVRACGCH	0.68 relative to wild type
BMP-7 variant L21R (ligand, In conditioned media; numbering on mature BMP-7) STGGKQRSQNRSKTPKNQEARRMASVAENSSSDQRQACKKHELYVSFRDLGWQDWIIAPEGYAAYYCEGECAFPLNSYMNATNHAIVQTLVHFINPETVPKPCCAPTQLNAISVLYFDDSSNVILKKYRNMVVRACGCH	1.01 relative to wild type

Now turn to the next binder.
Tell me measured BMPRIb binding (relative to wild type = 1.0) for BMP-7 variant S77H (ligand, In conditioned media; numbering on mature BMP-7) STGGKQRSQNRSKTPKNQEALRMASVAENSSSDQRQACKKHELYVSFRDLGWQDWIIAPEGYAAYYCEGECAFPLNHYMNATNHAIVQTLVHFINPETVPKPCCAPTQLNAISVLYFDDSSNVILKKYRNMVVRACGCH please.
0.3 relative to wild type
